# SYSTEM_NAME: ASK1 (Homo sapiens (Human), UniProt Q99683)
# PROTOCOL: Homogeneous Time-Resolved Fluorescence (HTRF) assay for inhibitory effect against ASK1 (Example C; KinEASE STK S3 kit)
# Assay type: biochemical
# EXPERIMENTAL_PARAMETERS: 25 nM ASK1, 100 μM ATP, read-out: Enzyme Activity C IC50
# Sequence (Q99683 649-946): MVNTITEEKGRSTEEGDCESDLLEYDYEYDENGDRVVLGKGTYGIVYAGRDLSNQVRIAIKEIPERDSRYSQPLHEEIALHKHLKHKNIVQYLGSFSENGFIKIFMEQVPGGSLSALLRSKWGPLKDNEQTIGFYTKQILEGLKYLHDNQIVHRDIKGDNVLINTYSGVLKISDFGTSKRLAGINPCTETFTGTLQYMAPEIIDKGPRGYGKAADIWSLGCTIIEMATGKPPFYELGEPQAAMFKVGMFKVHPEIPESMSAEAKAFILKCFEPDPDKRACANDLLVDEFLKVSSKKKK
pIC50: −log10 of the molar value.

{"SMILES_DATA": "Cc1cn(C)c2cc(NC(=O)c3ccc(C(C)(C)O)cc3)ncc12", "SYSTEM_NAME": "ASK1 (Homo sapiens (Human), UniProt Q99683)", "pIC50": 7.54}
{"SMILES_DATA": "CCn1cc(Br)c2cnc(NC(=O)c3ccc([C@@](C)(O)CO)cc3)cc21", "SYSTEM_NAME": "ASK1 (Homo sapiens (Human), UniProt Q99683)", "pIC50": 8.00}
{"SMILES_DATA": "Cn1cc(Cl)c2cnc(NC(=O)c3ccc([C@@](C)(O)CO)cc3)cc21", "SYSTEM_NAME": "ASK1 (Homo sapiens (Human), UniProt Q99683)", "pIC50": 7.72}
{"SMILES_DATA": "Cn1cc(Br)c2cnc(NC(=O)c3ccc(C(C)(C)O)cc3)cc21", "SYSTEM_NAME": "ASK1 (Homo sapiens (Human), UniProt Q99683)", "pIC50": 8.00}
{"SMILES_DATA": "CC(C)(O)c1ccc(C(=O)Nc2cc3c(ccn3CS(C)(=O)=O)cn2)cc1", "SYSTEM_NAME": "ASK1 (Homo sapiens (Human), UniProt Q99683)", "pIC50": 4.90}
{"SMILES_DATA": "CC(C)(CO)c1ccc(C(=O)Nc2cc3c(cn2)c(Cl)cn3C2CC2)cc1", "SYSTEM_NAME": "ASK1 (Homo sapiens (Human), UniProt Q99683)", "pIC50": 7.80}
{"SMILES_DATA": "CCn1cc(Br)c2cnc(NC(=O)c3ccc(C(C)(C)O)cc3)cc21", "SYSTEM_NAME": "ASK1 (Homo sapiens (Human), UniProt Q99683)", "pIC50": 8.10}
{"SMILES_DATA": "Cn1cc(Br)c2cnc(NC(=O)c3ccc([C@@](C)(O)CO)cc3)cc21", "SYSTEM_NAME": "ASK1 (Homo sapiens (Human), UniProt Q99683)", "pIC50": 7.70}
{"SMILES_DATA": "Cn1c(Cl)c(Cl)c2cnc(NC(=O)c3ccc([C@@](C)(O)CO)cc3)cc21", "SYSTEM_NAME": "ASK1 (Homo sapiens (Human), UniProt Q99683)", "pIC50": 6.91}
{"SMILES_DATA": "Cn1c(Cl)c(Cl)c2cnc(NC(=O)c3ccc(C(C)(C)O)cc3)cc21", "SYSTEM_NAME": "ASK1 (Homo sapiens (Human), UniProt Q99683)", "pIC50": 6.84}
{"SMILES_DATA": "CCn1cc(C)c2cnc(NC(=O)c3ccc(C(C)(C)O)cc3)cc21", "SYSTEM_NAME": "ASK1 (Homo sapiens (Human), UniProt Q99683)", "pIC50": 7.70}
{"SMILES_DATA": "CCn1ccc2cnc(NC(=O)c3ccc([C@@](C)(O)CO)cc3)cc21", "SYSTEM_NAME": "ASK1 (Homo sapiens (Human), UniProt Q99683)", "pIC50": 7.19}
{"SMILES_DATA": "Cn1cc(Cl)c2cnc(NC(=O)c3ccc([C@](C)(O)CO)cc3)cc21", "SYSTEM_NAME": "ASK1 (Homo sapiens (Human), UniProt Q99683)", "pIC50": 7.42}
{"SMILES_DATA": "CCn1cc(C)c2cnc(NC(=O)c3ccc([C@@](C)(O)CO)cc3)cc21", "SYSTEM_NAME": "ASK1 (Homo sapiens (Human), UniProt Q99683)", "pIC50": 7.77}
{"SMILES_DATA": "Cn1cc(Cl)c2cnc(NC(=O)c3ccc(C(C)(C)O)cc3)cc21", "SYSTEM_NAME": "ASK1 (Homo sapiens (Human), UniProt Q99683)", "pIC50": 7.74}
{"SMILES_DATA": "CCn1cc(Cl)c2cnc(NC(=O)c3ccc([C@](C)(O)CO)cc3)cc21", "SYSTEM_NAME": "ASK1 (Homo sapiens (Human), UniProt Q99683)", "pIC50": 7.92}
{"SMILES_DATA": "CCn1cc(Cl)c2cnc(NC(=O)c3ccc([C@@](C)(O)CO)c(C)c3)cc21", "SYSTEM_NAME": "ASK1 (Homo sapiens (Human), UniProt Q99683)", "pIC50": 7.39}
{"SMILES_DATA": "C[C@](O)(CO)c1ccc(C(=O)Nc2cc3c(ccn3C3CC3)cn2)cc1", "SYSTEM_NAME": "ASK1 (Homo sapiens (Human), UniProt Q99683)", "pIC50": 6.67}
{"SMILES_DATA": "CC(C)(O)c1ccc(C(=O)Nc2cc3c(ccn3CC3CC3)cn2)cc1", "SYSTEM_NAME": "ASK1 (Homo sapiens (Human), UniProt Q99683)", "pIC50": 6.63}
{"SMILES_DATA": "C[C@](O)(CO)c1ccc(C(=O)Nc2cc3c(cn2)c(Cl)cn3C2CC2)cc1", "SYSTEM_NAME": "ASK1 (Homo sapiens (Human), UniProt Q99683)", "pIC50": 8.22}

====

Listed next: entries and their corresponding melting point.

{"SMILES_DATA": "Cn1c(Cl)c(Cl)c2cnc(NC(=O)c3ccc([C@](C)(O)CO)cc3)cc21", "melting point": "205 to 208 °C"}
{"SMILES_DATA": "Cn1cc(Cl)c2cnc(NC(=O)c3ccc([C@](C)(O)CO)cc3)cc21", "melting point": "210 to 212 °C"}
{"SMILES_DATA": "CCn1cc(Cl)c2cnc(NC(=O)c3ccc([C@@](C)(O)CO)cc3)cc21", "melting point": "224.4 to 225.1 °C"}
{"SMILES_DATA": "Cn1cc(Cl)c2cnc(NC(=O)c3ccc([C@@](C)(O)CO)cc3)cc21", "melting point": "210 to 212 °C"}
{"SMILES_DATA": "CCn1cc(Cl)c2cnc(NC(=O)c3ccc([C@](C)(O)CO)cc3)cc21", "melting point": "223 to 223.9 °C"}

====

// pIC50 lookup, one value per entry
# SYSTEM_NAME: UniProt Q99683
# PROTOCOL: Scintillation assay for inhibitory effect against ASK1 (Example B; myelin basic protein substrate, [γ-32P]ATP)
# Assay type: biochemical
# EXPERIMENTAL_PARAMETERS: 2.5 μM ATP solution, read-out: Enzyme Activity B IC50
# Sequence (Q99683 650-1374): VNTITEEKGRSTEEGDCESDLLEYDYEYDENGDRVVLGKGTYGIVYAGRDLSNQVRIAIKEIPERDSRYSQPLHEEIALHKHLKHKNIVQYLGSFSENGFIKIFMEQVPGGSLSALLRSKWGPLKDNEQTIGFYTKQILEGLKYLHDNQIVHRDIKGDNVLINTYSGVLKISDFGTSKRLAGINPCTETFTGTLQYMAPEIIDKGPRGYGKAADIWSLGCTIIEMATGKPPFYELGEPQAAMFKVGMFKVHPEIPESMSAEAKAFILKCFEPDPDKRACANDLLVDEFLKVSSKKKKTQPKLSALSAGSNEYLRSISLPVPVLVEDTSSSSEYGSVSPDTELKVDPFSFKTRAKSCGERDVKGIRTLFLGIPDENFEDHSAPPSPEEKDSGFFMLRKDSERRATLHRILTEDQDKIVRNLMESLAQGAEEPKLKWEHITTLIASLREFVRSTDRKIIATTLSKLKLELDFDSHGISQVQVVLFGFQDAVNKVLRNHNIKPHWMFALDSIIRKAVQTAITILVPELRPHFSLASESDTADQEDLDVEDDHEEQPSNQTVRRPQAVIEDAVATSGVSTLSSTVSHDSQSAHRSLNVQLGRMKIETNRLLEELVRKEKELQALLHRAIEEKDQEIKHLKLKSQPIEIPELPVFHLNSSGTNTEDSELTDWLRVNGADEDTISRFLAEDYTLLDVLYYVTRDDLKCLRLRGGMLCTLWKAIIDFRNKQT
pIC50: −log10 of the molar value.

{"SMILES_DATA": "C[C@](O)(CO)c1ccc(C(=O)Nc2cc3c(cn2)c(Cl)cn3C2CC2)cc1", "SYSTEM_NAME": "UniProt Q99683", "pIC50": 8.40}
{"SMILES_DATA": "CCn1cc(Br)c2cnc(NC(=O)c3ccc([C@@](C)(O)CO)cc3)cc21", "SYSTEM_NAME": "UniProt Q99683", "pIC50": 8.70}
{"SMILES_DATA": "CCn1cc(C)c2cnc(NC(=O)c3ccc([C@@](C)(O)CO)cc3)cc21", "SYSTEM_NAME": "UniProt Q99683", "pIC50": 7.85}
{"SMILES_DATA": "CCn1ccc2cnc(NC(=O)c3ccc([C@@](C)(O)CO)cc3)cc21", "SYSTEM_NAME": "UniProt Q99683", "pIC50": 7.26}
{"SMILES_DATA": "C[C@](O)(CO)c1ccc(C(=O)Nc2cc3c(cn2)c(Br)cn3C2CC2)cc1", "SYSTEM_NAME": "UniProt Q99683", "pIC50": 8.70}
{"SMILES_DATA": "CCn1cc(Cl)c2cnc(NC(=O)c3ccc([C@@](C)(O)CO)cc3)cc21", "SYSTEM_NAME": "UniProt Q99683", "pIC50": 8.22}
{"SMILES_DATA": "CCn1cc(C)c2cnc(NC(=O)c3ccc(C(C)(C)O)cc3)cc21", "SYSTEM_NAME": "UniProt Q99683", "pIC50": 8.15}
{"SMILES_DATA": "CCn1cc(Br)c2cnc(NC(=O)c3ccc(C(C)(C)O)cc3)cc21", "SYSTEM_NAME": "UniProt Q99683", "pIC50": 8.52}

====

# IC50 per record follows
# SYSTEM_NAME: ASK1 (Homo sapiens (Human), UniProt Q99683)
# PROTOCOL: Homogeneous Time-Resolved Fluorescence (HTRF) assay for inhibitory effect against ASK1 (Example C; KinEASE STK S3 kit)
# Type: biochemical
# EXPERIMENTAL_PARAMETERS: 25 nM ASK1, 100 μM ATP, read-out: Enzyme Activity C IC50

{"SMILES_DATA": "CCn1ccc2cnc(NC(=O)c3ccc([C@@](C)(O)CO)c(C)c3)cc21", "IC50": "528 nM"}
{"SMILES_DATA": "C[C@](O)(CO)c1ccc(C(=O)Nc2cc3c(cn2)c(Br)cn3C2CC2)cc1", "IC50": "7 nM"}
{"SMILES_DATA": "CCn1cc(Cl)c2cnc(NC(=O)c3ccc([C@@](C)(O)CO)cc3)cc21", "IC50": "16 nM"}
{"SMILES_DATA": "CC(C)(O)c1ccc(C(=O)Nc2cc3c(cn2)c(Br)cn3CC2CC2)cc1", "IC50": "62 nM"}
